Origin of the recorded values: patent US20220396632A1

assayed system: T1, Biotin Y46,48,51(SO3) PSGL-1(42-62) peptide (human, sulfotyrosine at Y46, Y48 and Y51; C-terminal Lys-biotin)
T1 construct: also called fully sulfated N-terminal PSGL-1 peptide
T1 peptide: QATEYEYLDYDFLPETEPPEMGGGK
assay: ELISA, immobilized biotin peptide
assay endpoint: A450nm, 20 nM mAb (A450nm)

[[record]]
binder = "05A07 (antibody, IgG4, V domains shown) VH: QVQLVQSGSEVKRPGASVKVSCKTSGYTFSNYGIAWVRQAPGQGLEWVGWVSAYNGKTGASQKLQGRVTMTTDRSTTTAYLELRSLQSDDTAVYYCARGVKGGLTGYARDYWGQGTLVIVSS VL: DIVLTQSPRSLPVTLGQPASISCRSSQSLVNRAGDTYLNWFQQRPGQSPRRLIYKVSNRDSGVPDRFSGSGSGTDFTLKISRVEAEDVGVYYCMQGTQWPYTFGQGTKLEIK"
reading_unit = "A450nm"
measured_number = 2.44

[[record]]
binder = "01A04 (antibody, IgG4, V domains shown) VH: EVQLVQSGAEVKKPGASVKVSCKASGYTFTSYYIHWVRQAPGQGLEWMGIIRPSGGSTSYAQKFQGRVTMTRDTSTSTVYMELSSLRSEDTAMYYCARVGVGSFDYWGQGTLVTVSS VL: DIQMTQSPSTLSASVGDRVTITCRASQSVSNWLAWYQQKPGKAPKLLIYKASSLESGVPSRFSGSGSGTEFTLTISSLQPDDFATYYCQWFRTFGPGTKVDIK"
reading_unit = "A450nm"
measured_number = 2.73

